System: Hs578T complex spheroid growth, percent test/control
Assay: Anticancer human tumor Hs578T cell line growth inhibition [AhR]; active = viability on the fitted dose curve at most 10% of control; inactive = the rest;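 note: luminescent viability signal as a proxy for spheroid growth; spheroids exposed to agents for one week after three days of growth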
Details: second compound 0.316 µM; first compound 3.16 µM
Possible outcomes: active, inactive

• COc1ccc([C@@H](O)c2cc(-c3ncnc4cc(N5CCOCC5)ccc34)c(F)cc2Cl)nn1 + Cc1cncc(-c2nc(NCCc3c[nH]c4ccccc34)c3ncn(C(C)C)c3n2)c1 = inactive
• Nc1ccccc1NC(=O)c1ccc(CNC(=O)OCc2cccnc2)cc1 + Cc1cncc(-c2nc(NCCc3c[nH]c4ccccc34)c3ncn(C(C)C)c3n2)c1 = inactive
• CC(C)c1c(-c2ccccc2)nc2c(C#N)c[nH]n2c1=O + CC(CO)NC(=O)c1cc(-c2ccc(Cl)cc2)nn(-c2cnn(C)c2)c1=O = inactive
• COc1cccc2c1C(=O)c1c(O)c3c(c(O)c1C2=O)CC(O)(C(=O)CO)CC3OC1CC(N)C(O)C(C)O1 (stereo unspecified) + Cc1cncc(-c2nc(NCCc3c[nH]c4ccccc34)c3ncn(C(C)C)c3n2)c1 = active
• CC1COCCN1c1cc(C2(S(C)(=N)=O)CC2)nc(-c2ccnc3[nH]ccc23)n1 (stereo unspecified) + Cc1cncc(-c2nc(NCCc3c[nH]c4ccccc34)c3ncn(C(C)C)c3n2)c1 = inactive
• COc1cccc2c1C(=O)c1c(O)c3c(c(O)c1C2=O)CC(O)(C(=O)CO)CC3OC1CC(N)C(O)C(C)O1 (stereo unspecified) + Cc1ccccc1N=Nc1ccc(NC(=O)c2ccnn2C)c(C)c1 = active
